polymerase ribozyme fitness (log ratio) by entry:
B1: TPR 5TU (parent)
chain: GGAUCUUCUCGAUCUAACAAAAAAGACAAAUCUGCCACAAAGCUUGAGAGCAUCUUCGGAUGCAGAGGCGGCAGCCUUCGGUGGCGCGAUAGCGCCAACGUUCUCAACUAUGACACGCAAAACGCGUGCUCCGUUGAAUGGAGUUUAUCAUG

- Variants of: B1
- run description: polymerase ribozyme fitness, log enrichment relative to wild type (log ratio); higher = more active; in vitro selection for triplet polymerase activity
Fewer inactive variants are shown than the library holds.
Answer with a bare number; do not write a unit.

Example entries and their recorded answers appear below.
>  <variant designation>
C36A C85U

>  <reported value>
-3.7

$$$$
>  <variant designation>
A41C A52G G58A

>  <reported value>
-1.39

$$$$

Asked: Give the measured polymerase ribozyme fitness (log ratio) of C85A U144A .
Given back: -0.579

Asked: And C57G G141A ?
Given back: 0.453
